targetDesc: T1, human CD8 on human T cells (human, UniProt P01732 22-235)
T1 construct: whole, on cells; the antibodies were raised against human CD8 alpha; also called CD8 on human CD8+ T cells; hCD8
T1 sequence (P01732 22-235): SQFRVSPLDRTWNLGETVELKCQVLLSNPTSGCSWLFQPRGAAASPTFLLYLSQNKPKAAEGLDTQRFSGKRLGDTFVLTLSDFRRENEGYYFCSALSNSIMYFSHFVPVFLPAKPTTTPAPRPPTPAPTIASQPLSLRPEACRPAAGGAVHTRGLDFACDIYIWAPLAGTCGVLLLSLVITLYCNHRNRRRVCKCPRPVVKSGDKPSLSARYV
experimentalDetails: flow cytometry on human CD8+ T cells, titration
Reported Fold Change to Parental Apparent KD values are given for each entry in this list.

# binder, unitsSymbol, Fold Change to Parental Apparent KD
records = [
    ("humanized 02A01-VH2-VK3 (antibody, human IgG1, V domains shown, human IgG1 format; also called 02-VH2-VK3) VH: EVQLVQSGAEVKKPGATLKISCKASGYTFTDFTMHWVQQAPGKGLEWIGLVNPNNGGNIYNQNFKGRATLTVDTSTSTAYMELSSLRSEDTSVYYCGRVPLYTSHGMDYWGQGTLVTVSS VL: EIVLTQSPATLSLSPGERATISCRASESVDSYDINSMHWYQQKPGQAPRLLIYRASHLQSGIPARFSGSGSRTDFTLTISSLEPEDFATYYCQQSNEDPLTFGQGTKLEIK", "fold", 1.18),
    ("humanized 02A01-VH3-VK3 (antibody, human IgG1, V domains shown, human IgG1 format; also called 02-VH3/VK3) VH: EVQLVQSGAEVKKPGATLKISCKASGYTFTDFTMHWVQQAPGKGLEWIGLVNPNNGGNIYAEKFQGRATLTVDTSTSTAYMELSSLRSEDTSVYYCGRVPLYTSHGMDYWGQGTLVTVSS VL: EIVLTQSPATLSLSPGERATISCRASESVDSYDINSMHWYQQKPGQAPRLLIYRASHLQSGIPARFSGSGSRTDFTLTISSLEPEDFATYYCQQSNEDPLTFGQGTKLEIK", "fold", 1.58),
]
